Quantity measured: melting point (°C)

Answered examples (2):
Q) Param item = CC(C)CCn1ccc(-c2ccc(OC(C)C)cc2)c(C#N)c1=O ; retrieve measured melting point.
A) 129

Q) Param item = CC(C)CCn1ccc(N2CCCc3ccccc32)c(C#N)c1=O ; retrieve measured melting point.
A) 134

[a] CC(C)CCn1ccc(-c2ccc(N3CC(C)OC(C)C3)cc2)c(C#N)c1=O (stereo not shown)
[b] N#Cc1c(N2CCN(c3ncccc3C(F)(F)F)CC2)ccn(Cc2ccc(OC(F)(F)F)cc2)c1=O
[c] Cc1ccc(-c2ccn(CCC(C)C)c(=O)c2C#N)cc1
[d] COc1ccc(-c2ccn(CCC(C)C)c(=O)c2C#N)c(F)c1
Q) Thanks in advance: please rank these 4 entries by melting point, highest to lowest. Give the labels in the order requested.
A) b, a, c, d
(b: 258 °C, a: 162 °C, c: 102 °C, d: 65 °C)

[P] CCOC(=O)c1ccc(-c2cccc(COc3ccn(CCC(C)C)c(=O)c3C#N)c2)cc1
[Q] COCc1ccc(-c2ccn(CCC(C)C)c(=O)c2C#N)cc1
Q) Which entry shows the lesser value of melting point here, P or Q ? Identify your pick by its label.
A) Q
(Q: 91 °C, P: 148 °C)

* * *

Assay target: human mGluR2 receptor (Homo sapiens)
Construct: expressed in transfected cells; host or cells: CHO cells (membrane preparation)
Sequence (Q14416 19-872): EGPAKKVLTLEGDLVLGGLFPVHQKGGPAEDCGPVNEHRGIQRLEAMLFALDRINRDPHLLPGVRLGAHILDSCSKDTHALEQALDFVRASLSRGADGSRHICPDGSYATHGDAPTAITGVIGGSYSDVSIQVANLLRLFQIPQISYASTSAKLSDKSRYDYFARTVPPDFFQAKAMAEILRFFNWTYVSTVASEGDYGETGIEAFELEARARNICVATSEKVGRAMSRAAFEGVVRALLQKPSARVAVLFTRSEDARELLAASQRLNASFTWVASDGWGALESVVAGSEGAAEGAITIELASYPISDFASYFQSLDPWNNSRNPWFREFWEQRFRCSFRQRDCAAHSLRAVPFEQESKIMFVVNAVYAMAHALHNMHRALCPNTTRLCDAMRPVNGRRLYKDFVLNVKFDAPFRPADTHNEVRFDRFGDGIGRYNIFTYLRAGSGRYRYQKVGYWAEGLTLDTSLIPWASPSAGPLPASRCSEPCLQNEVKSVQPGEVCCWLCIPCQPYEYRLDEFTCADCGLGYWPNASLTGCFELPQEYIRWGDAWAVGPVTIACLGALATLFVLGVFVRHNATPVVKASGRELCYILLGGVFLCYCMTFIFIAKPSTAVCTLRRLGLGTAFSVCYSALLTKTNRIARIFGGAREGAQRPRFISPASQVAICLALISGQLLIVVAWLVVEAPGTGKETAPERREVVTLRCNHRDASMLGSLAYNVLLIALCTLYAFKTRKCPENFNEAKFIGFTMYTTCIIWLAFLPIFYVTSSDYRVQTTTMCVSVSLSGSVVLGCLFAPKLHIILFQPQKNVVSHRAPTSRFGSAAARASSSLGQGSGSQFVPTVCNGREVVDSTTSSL
Experimental protocol: [35S]GTPγS binding assay (GTPγS-PAM): positive allosteric modulation in presence of glutamate at EC25, membranes from transfected CHO cells
Type: biochemical
Conditions used: in presence of mGluR2 agonist glutamate at predetermined EC25 concentration, averages of duplicate values of 11-concentration response curves, read-out: GTPgS - hR2 PAM pEC50 (converted)
Quantity measured: EC50 (nM)

Answered examples (3):
Q) Checklist item: EC50 tested on human mGluR2 receptor (Homo sapiens), entry N#Cc1c(N2CCN(Cc3ccc(OCC4CC4)c(Cl)c3)CC2)ccn(CC2CC2)c1=O , value?
A) 501

Q) Checklist item: EC50 tested on human mGluR2 receptor (Homo sapiens), entry CC(C)CCn1ccc(N2CCN(c3ncccc3C(F)(F)F)CC2)c(C#N)c1=O , value?
A) 200

Q) Checklist item: EC50 tested on human mGluR2 receptor (Homo sapiens), entry COc1cc(-c2ccn(CCC(C)C)c(=O)c2C#N)ccc1CNC(C)=O , value?
A) 3980

[I] N#Cc1c(Nc2ccc(Oc3ccncc3)cc2)ccn(CC2CC2)c1=O
[II] CC(C)CCn1ccc(-c2ccc(N(C)C)cc2)c(C#N)c1=O
Q) Which shows the larger EC50 value: I or II ? Identify your pick by its label.
A) I

[I] CC(=O)NCCNc1ccc(-c2ccn(CCC(C)C)c(=O)c2C#N)cc1
[II] Cc1ccc(OC2CCN(c3ccn(CCC(C)C)c(=O)c3C#N)CC2)cc1
Q) Which entry shows the lesser value of EC50 here, I or II ? Identify your pick by its label.
A) II

* * *

Assay target: human mGluR2 receptor (Homo sapiens)
Construct: expressed in transfected cells; host or cells: CHO cells (membrane preparation)
Experimental protocol: [35S]GTPγS binding assay (GTPγS-PAM): positive allosteric modulation in presence of glutamate at EC25, membranes from transfected CHO cells
Assay type: biochemical
Conditions used: in presence of mGluR2 agonist glutamate at predetermined EC25 concentration, averages of duplicate values of 11-concentration response curves, read-out: GTPgS - hR2 PAM pEC50 (converted)
Quantity measured: EC50 (nM)

Q) Checklist item: EC50 tested on human mGluR2 receptor (Homo sapiens), entry CCCCn1ccc(-c2ccc(Oc3cnccn3)cc2)c(C#N)c1=O [1-076] , value?
A) 3980

Q) Checklist item: EC50 tested on human mGluR2 receptor (Homo sapiens), entry CC(C)CCn1ccc(Nc2ccccc2)c(C#N)c1=O [1-298] , value?
A) 3980

Q) Checklist item: EC50 tested on human mGluR2 receptor (Homo sapiens), entry CC(C)CCn1ccc(-c2ccc(Oc3cccnc3)cc2)c(C#N)c1=O [1-155] , value?
A) 501

[a] COC(=O)c1cccc(-c2ccn(CCC(C)C)c(=O)c2C#N)c1 [1-242]
[b] CC(C)CCn1ccc(N2CCC(n3ccc4cc(F)ccc43)CC2)c(C#N)c1=O [4-037]
[c] COc1ccc(-c2ccn(Cc3ccc(F)cc3)c(=O)c2C#N)cc1 [1-022]
[d] CC(C)CCn1ccc(Oc2ccc(N3CCCC3)cc2)c(C#N)c1=O [1-291]
Q) Thanks in advance: please rank these 4 entries by EC50, highest to lowest. Give the labels in the order requested.
A) a, d, c, b
(a: 3980 nM, d: 501 nM, c: 316 nM, b: 126 nM)

[I] CCCCn1ccc(-c2cccs2)c(C#N)c1=O [1-059]
[II] CC(C)CCn1ccc(OCc2ccc(OCc3ccccc3)cc2)c(C#N)c1=O [1-289]
[III] Cc1nc(COc2ccc(-c3ccn(CCC(C)C)c(=O)c3C#N)cc2)cs1 [1-169]
Q) Thanks in advance: please rank these 3 entries by EC50, highest to lowest. Give the labels in the order requested.
A) I, III, II

* * *

Quantity measured: melting point (°C)

Q) Param item = CC(C)CCn1ccc(-c2ccc(CN3CCOCC3)cc2)c(C#N)c1=O ; retrieve measured melting point.
A) 148

[I] CC(C)CCn1ccc(-c2ccc(CO)cc2)c(C#N)c1=O
[II] CC(C)CCn1ccc(OCCN(C)Cc2cccc(F)c2)c(C#N)c1=O
Q) Which entry shows the lesser value of melting point here, I or II ? Identify your pick by its label.
A) I

[P] CC(C)CCn1ccc(-c2cccc(F)c2)c(C#N)c1=O
[Q] CC(C)CCn1ccc(-c2ccc3c(ccn3Cc3ccncc3)c2)c(C#N)c1=O
Q) Which entry shows the lesser value of melting point here, P or Q ? Identify your pick by its label.
A) P

* * *

Quantity measured: melting point (°C)

Answered examples (3):
Q) Param item = CC(C)CCn1ccc(-c2cccc(O)c2)c(C#N)c1=O ; retrieve measured melting point.
A) 201

Q) Param item = CC(C)CCn1ccc(-c2ccc(N(C)C)cc2)c(C#N)c1=O ; retrieve measured melting point.
A) 137

Q) Param item = CC(C)CCn1ccc(OC2Cc3ccccc3C2)c(C#N)c1=O ; retrieve measured melting point.
A) 169

[1] CC(C)CCn1ccc(-c2ccc(N3CCC(O)CC3)cc2)c(C#N)c1=O
[2] CCCCn1ccc(-c2ccc(OCc3cccc(C)n3)cc2)c(C#N)c1=O
Q) Which shows the larger melting point value: 1 or 2 ? Identify your pick by its label.
A) 1
(1: 213 °C, 2: 102 °C)

[A] CCCCn1ccc(N2CCN(Cc3cc(F)cc(C(F)(F)F)c3)CC2)c(C#N)c1=O
[B] CC(C)CCn1ccc(OCc2cccc(OC(F)(F)F)c2)c(C#N)c1=O
Q) Which entry shows the lesser value of melting point here, A or B ? Identify your pick by its label.
A) B

* * *

Quantity measured: melting point (°C)

Answered examples (5):
Q) Param item = CC(C)CCn1ccc(-c2ccc(C(C#N)c3ccn(CCC(C)C)c(=O)c3C#N)cc2)c(C#N)c1=O (stereo not drawn) [1-255] ; retrieve measured melting point.
A) 233

Q) Param item = COc1ccc(-c2ccn(CCC(C)C)c(=O)c2C#N)cc1F [1-114] ; retrieve measured melting point.
A) 133

Q) Param item = Cc1ccc(Cn2ccc(-c3cccs3)c(C#N)c2=O)cc1 [1-019] ; retrieve measured melting point.
A) 118

Q) Param item = CC(C)CCn1ccc(NC2CCN(c3ccc(C(F)(F)F)cn3)CC2)c(C#N)c1=O [3-004] ; retrieve measured melting point.
A) 188

Q) Param item = COc1ccc(-c2ccn(Cc3ccc(OC(F)(F)F)cc3)c(=O)c2C#N)cc1 [1-039] ; retrieve measured melting point.
A) 169

[1] CC(C)CCn1ccc(-c2ccc(OC(C)C)c(Cl)c2)c(C#N)c1=O [1-117]
[2] CC(C)CCn1ccc(-c2cccc(NS(C)(=O)=O)c2)c(C#N)c1=O [1-215]
Q) Which shows the larger melting point value: 1 or 2 ? Identify your pick by its label.
A) 1

* * *

Assay target: human mGluR2 receptor (Homo sapiens)
Construct: expressed in transfected cells; host or cells: CHO cells (membrane preparation)
Experimental protocol: [35S]GTPγS binding assay (GTPγS-PAM): positive allosteric modulation in presence of glutamate at EC25, membranes from transfected CHO cells
Type: biochemical
Conditions used: in presence of mGluR2 agonist glutamate at predetermined EC25 concentration, averages of duplicate values of 11-concentration response curves, read-out: GTPgS - hR2 PAM pEC50 (converted)
Quantity measured: EC50 (nM)

Q) Param item = N#Cc1c(OCc2ccc(CN3CCOCC3)cc2)ccn(Cc2ccc(OC(F)(F)F)cc2)c1=O [1-271] ; retrieve measured EC50.
A) 158

Q) Param item = CC(C)CCn1ccc(-c2ccc(OCC#N)cc2)c(C#N)c1=O [1-131] ; retrieve measured EC50.
A) 2510

Q) Param item = COc1ccc(-c2ccn(Cc3ccc(OC(F)(F)F)cc3)c(=O)c2C#N)cc1 [1-039] ; retrieve measured EC50.
A) 158

[I] Cc1nnc(N2CCN(c3ccn(CCC(C)C)c(=O)c3C#N)CC2)c2ccccc12 [2-034]
[II] CC(C)CCn1ccc(C=Cc2ccccc2)c(C#N)c1=O [1-261]
Q) Which shows the larger EC50 value: I or II ? Identify your pick by its label.
A) I
(I: 3980 nM, II: 200 nM)
